Entries annotated with measured growth inhibition
experiment: NCI Yeast Anticancer Drug Screen. Data for the mlh1 strain (AID 171);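 note: 0% = growth of vehicle-treated control cultures of the same strain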; details: S. cerevisiae mlh1 strain growth inhibition; at 33.0 µM; active compounds read high
About 79,000 compounds went through this panel and 15% of them were active in at least one assay; those are over-represented in the sample as a whole.
Please respond with the number in % and leave the unit unwritten.

Value of growth inhibition reported for the compound CC[C@@]1(O)C[C@H](OC2CC(N(C)C)C(O)C(C)O2)c2c(O)c3c(c(O)c2[C@H]1OC1CC(N(C)C)C(O)C(C)O1)C(=O)c1cccc(O)c1C3=O (stereo partly specified) is 10

get_value(item= CCC1(O)C(=O)OCc2c1cc1n(c2=O)Cc2cc3cc(Cl)ccc3nc2-1 (stereo unspecified) , readout=growth inhibition) returns 65

Please fill in: growth inhibition reported for O=C1OC2C(O1)C1(Cl)C(Cl)=C(Cl)C2(Cl)C1(Cl)Cl (stereo unspecified) = 1

Nc1nnc(N)n1-n1c(N)nnc1N has a reported growth inhibition of -1

O=S(=O)(O)/C(=C\c1ccccc1)c1ccccc1 (tested in a mixture with another compound) yielded growth inhibition of -22

Given item COc1cc(C2c3cc4c(cc3[C@@H](Nc3ccc(N)cc3)C3COC(=O)[C@H]23)OCO4)cc(OC)c1O (stereo partly specified) , the value recorded as its growth inhibition is 93

response.value for N#Cc1cc(N(CCCl)CCCl)c([N+](=O)[O-])cc1[N+](=O)[O-] (field: growth inhibition) = 70

Entry COc1ccc(OC)c(/C=C/[N+](=O)[O-])c1 , growth inhibition reported as 28

In plain terms, CC1CN1C1=C(Cl)C(=O)C(N2CC2C)=C(Cl)C1=O (stereo unspecified) has a documented growth inhibition of 64

# compound CN(CCc1ccc(Br)cc1)CCN1CCCCC1 ; its growth inhibition = 82

Lookup result for COC(=O)C1=C(C(=O)OC)C2OC1c1cc3ccccc3cc12 ; measured growth inhibition: 99

The compound listed as OC1CCCC2CCC[N-]C12.OC1CCCC2CCC[N-]C12.[O]=[V][OH] (stereo unspecified) shows growth inhibition equal to 88

Lab note: measured growth inhibition of [O-][n+]1c2cccc(O)c2[n+]([O-])c2cccc(O)c21 was 18

The compound listed as OCC(O)C(O)CO (stereo unspecified) (tested in a mixture with another compound) shows growth inhibition equal to -5

Value of measured growth inhibition for the entry CCOC(=O)C1C2c3ccccc3C(c3ccccc32)C1C(=O)OCC (stereo unspecified) : 16

For record BrCC[N+]12CC[N+](CCBr)(CC1)C2 the listed growth inhibition is 88

According to the records, this compound Cc1c2ccccc2cc2ccccc12 displays growth inhibition of 99

---

assay: NCI Yeast Anticancer Drug Screen. Data for the sgs1 mgt1 strain (AID 161);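 note: 0% = growth of cultures given vehicle only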; conditions: S. cerevisiae sgs1 mgt1 strain, at 50.0 µM (retest, dose inferred, filed as 5.0), active compounds read high
About 79,000 compounds went through this panel and 15% of them were active in at least one assay; those are over-represented in the sample as a whole.
Collected growth inhibition values appear next to each entry.
Numbers only; they are read as %.

{"Compound": "O=C(O)CP(=O)(c1ccccc1)c1ccccc1.O=C(O)CP(=O)(c1ccccc1)c1ccccc1.[Cd]", "Units Text": "%", "Data Value": 47}

growth inhibition in this record for [I][Hg][CH2]C1COCC([CH2][Hg][I])O1 (configuration not stated) : 9

Per the record, COC1=C(C)C(=O)c2c(c(COC(N)=O)c3n2CC2C3N2C)C1=O (configuration not stated) has growth inhibition of 74

The compound listed as O=c1oc2ccccc2c(O)c1C(c1ccco1)c1c(O)c2ccccc2oc1=O has a reported growth inhibition of 43

So for CCCN(CCC)c1c([N+](=O)[O-])cc(S(N)(=O)=O)cc1[N+](=O)[O-] , the logged growth inhibition turned out to be 35

# compound COC(=O)C(Cl)(Br)CCl (configuration not stated) ; its growth inhibition = 49

GET /value?item= CN(C)c1ccc(C2N(Cc3ccc(N(CCCl)CCCl)cc3Cl)CCCN2Cc2ccc(N(CCCl)CCCl)cc2Cl)cc1 &field=growth inhibition returns 98
